system: kératinocytes; assay: Synthesis of sulfated glycosaminoglycans (radioactive label incorporation) in keratinocyte cultures; type: cell-based; conditions: keratinocytes; second experiment; 0,1 mM; n=2
endpoint label: Valeur moyenne (cpm)
// return numeric value only (unit: cpm, not printed)

Incoming: Check the records and state Valeur moyenne for CCCCCCNC(C)C[C@@H]1OC[C@@H](O)[C@H](O)[C@H]1O (stereo partly shown) [Composé de l'exemple 10]
Outgoing: 54897

Incoming: Check the records and state Valeur moyenne for CC(C[C@@H]1OC[C@@H](O)[C@H](O)[C@H]1O)NCCCO (stereo partly shown)
Outgoing: 12660

Incoming: Check the records and state Valeur moyenne for CNC(C)C[C@@H]1OC[C@@H](O)[C@H](O)[C@H]1O (stereo partly shown)
Outgoing: 11922

Incoming: Check the records and state Valeur moyenne for CC(N)C[C@@H]1OC[C@@H](O)[C@H](O)[C@H]1O (stereo partly drawn) [1-[2-amino-propyl]-C-β-D-xylopyranose]
Outgoing: 14465

---

Entries and their activity at 1000 µM
tested on: kératinocytes; assay: Synthesis of sulfated glycosaminoglycans (radioactive label incorporation) in keratinocyte cultures; type: cell-based; details: Keratinocyte; keratinocytes; second experiment; 1 mM; control = 100; n=2; read-out: % (synthèse des glycosaminoglycanes par rapport au témoin)
// return numeric value only (unit: %, not printed)

CC(N)C[C@@H]1OC[C@@H](O)[C@H](O)[C@H]1O (stereo partly drawn) [1-[2-amino-propyl]-C-β-D-xylopyranose] | 225
CNC(C)C[C@@H]1OC[C@@H](O)[C@H](O)[C@H]1O (stereo partly shown) | 139
CC(C[C@@H]1OC[C@@H](O)[C@H](O)[C@H]1O)NCCCO (stereo partly shown) | 145

Please examine the following record next.
Incoming: Check the records and state activity at 1000 µM for CCCCCCNC(C)C[C@@H]1OC[C@@H](O)[C@H](O)[C@H]1O (stereo partly shown)
Outgoing: 255
